Where these numbers come from: PubChem BioAssay (NCI)

Tested on: MDA-MB-231 breast
Assay: NCI tumour cell line growth inhibition, 48 h
Listed here: items and their measured TGI.

- compound: "COc1ccc2c(c1)/C(=C(\\C(Cl)=C(Cl)Cl)[N+](=O)[O-])N2"
  endpoint label: "TGI"
  measured value: "> 100 µM"
- compound: "O=C(CSc1nc2ccc(I)cc2c(=O)n1Cc1ccccc1)N/N=C/c1ccccc1"
  endpoint label: "TGI"
  measured value: "43.3 µM"

Entry C=CCCCCOC1C=CC(OC(C)=O)C(COC(C)=O)O1 (stereo unspecified) — recorded TGI = > 100 µM

Reported TGI ( `CS(C)(=O)=N/C=C\C(=O)C(Cl)(Cl)Cl` ) = > 100 µM

Record CC(=O)OCC1C(C(C)OC(C)=O)CCC2C1CCC1(C)C(OC(C)=O)CCC21 (stereo unspecified) , field TGI: 30.7 µM

Please fill in: TGI reported for `O=C1/C(=C/c2ccc(O)cc2)NC(=S)N1CN1CCCCC1` = > 100 µM
